The reported numbers originate from patent US20230399394A1.

Biological target: T1, Human IL-33-his (human, UniProt O95760 112-270, biotinylated with EZ-Link NHS-Biotin where used as IL-33-his-biotin)
T1 sequence: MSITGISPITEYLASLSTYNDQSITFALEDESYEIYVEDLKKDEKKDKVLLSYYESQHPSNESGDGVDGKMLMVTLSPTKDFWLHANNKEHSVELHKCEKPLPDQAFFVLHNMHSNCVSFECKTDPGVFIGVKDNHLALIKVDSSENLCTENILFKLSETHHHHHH
Assay: cell-based or functional assay
Endpoint Label: IC50 of inhibition of IFNγ secretion by NK cells induced by IL-33 (nM)
The reply should contain only the number, in nM.

Q: # return recorded IC50 of inhibition of IFNγ secretion by NK cells induced by IL-33 for entry 874F7-Hu2 (antibody, human IgG4 S228P, kappa, V domains shown, Humanized; also called humanized antibody 874F7-Hu2) VH: QVQLQESGPGLVKPSETLSLTCTVSGFSLSKYGVHWIRQPPGKGLEWLGVLRAGGSTGYNSALMSRLTISKDSSKSQVSLKLSSVTAADTAVYYCVRDHYYYSSYGGFVYWGQGTLVTVSS VL: DIQMTQSPSSVSASVGDRVTITCLASQTIGAWLAWYQQKPGKSPKLLIYAATRLADGVPSRFSGSGSGTDFTLTISSLQPEDFATYYCQQLDSSPYTFGQGTKVEIKR
A: 1.56

Q: # return recorded IC50 of inhibition of IFNγ secretion by NK cells induced by IL-33 for entry 871G1-Hu2 (antibody, human IgG4 S228P, kappa, V domains shown, Humanized; also called humanized antibody 871G1-Hu2) VH: QVQLQESGPGLVKPSETLSLTCTVSGFSLSKYGVHWIRQPPGKGLEWLGVLRAGGTISYNSALMSRLTISEDISKSQVSLKLSSVTAADTAVYYCARDHYYYSSFGGFASWGQGTLVTVSS VL: DIQMTQSPSSVSASVGDRVTITCLASQTIGAWLAWYQQKPGKSPKLLIYAATRLADGVPSRFSGSGSGTDFTLTISSLQPEDFATYYCQQLNSTPYTFGQGTKVEIKR
A: 0.9

Q: # return recorded IC50 of inhibition of IFNγ secretion by NK cells induced by IL-33 for entry 864F3-Hu5 (antibody, human IgG4 S228P, kappa, V domains shown, Humanized; also called humanized antibody 864F3-Hu5) VH: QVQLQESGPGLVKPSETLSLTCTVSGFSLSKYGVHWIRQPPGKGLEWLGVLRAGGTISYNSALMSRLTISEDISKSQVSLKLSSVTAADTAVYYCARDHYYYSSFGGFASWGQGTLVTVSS VL: DIQMTQSPSSLSASVGDRVTITCLASQTIATWLAWYQQKPGKSPKLLIYAATRLADGVPSRFSGSGSGTDFTLTISSLQPEDFATYYCQQLYNTPYTFGQGTKVEIKR
A: 1.02

Q: # return recorded IC50 of inhibition of IFNγ secretion by NK cells induced by IL-33 for entry 864F3-Hu4 (antibody, human IgG4 S228P, kappa, V domains shown, Humanized; also called humanized antibody 864F3-Hu4) VH: QVQLQESGPGLVKPSETLSLTCTVSGFSLSKYGVHWIRQPPGKGLEWIGVLRAGGTISYNSALMSRVTISEDISKSQVSLKLSSVTAADTAVYYCARDHYYYSSFGGFASWGQGTLVTVSS VL: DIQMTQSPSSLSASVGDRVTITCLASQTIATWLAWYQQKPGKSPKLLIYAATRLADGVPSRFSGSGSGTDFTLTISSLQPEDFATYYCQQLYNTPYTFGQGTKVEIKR
A: 0.904
